Tested on: Zika virus NS2B-NS3 protease (linked construct)
Experiment: 384 well plate NINDS Rhodamine confirmatory qHTS for Zika virus inhibitors (AID 1347164);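 also: fluorescence from protease cleavage of Ac-LKRR-rhodamine 110 substrate; nearly all actives have a fitted effect of over 65% in size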
Conditions: rhodamine-110 peptide substrate fluorescence; series mostly up to 1 mM
Results filed as inconclusive are left out. Activity calls are given as the source filed them. Calls follow the shape of the dose curve; as a rule, active = well fitted inhibition curve with a large enough effect; inconclusive = small, poorly fitted or top-dose-only effect; inactive = no such curve, though single readings can be large or run the other way. Positions of bridges follow the written chain, without caps; N, C: chain ends. Non-standard residues stand in square brackets, D forms with d. Residues, ends and D or L forms follow the SMILES beside them. ξ: configuration not given here. *: point of attachment. ξDab(CH2SO3H) = NC(CCNCS(=O)(=O)O)C(=O)O; Octanoyl(6-Me) = CCC(C)CCCCC(=O)*; Dab = NCC[CH](N)C(=O)O
Outcome codes: 1.0 for active, 0.0 for inactive

Compound | Class
O=C(O)COc1ccc(-c2nccc3c2C(=O)N(Cc2cccc(C(F)(F)F)c2)CC(COc2ccc(OC(F)(F)F)cc2)O3)cc1 (configuration not stated) | 1.0
CCC(C)CCCCC(=O)NC(CCNCS(=O)(=O)O)C(=O)NC(C(=O)NC(CCNCS(=O)(=O)O)C(=O)NC1CCNC(=O)C(C(C)O)NC(=O)C(CCNCS(=O)(=O)O)NC(=O)C(CCNCS(=O)(=O)O)NC(=O)C(CC(C)C)NC(=O)C(CC(C)C)NC(=O)C(CCNCS(=O)(=O)O)NC1=O)C(C)O (configuration not stated) ({Octanoyl(6-Me)}-[ξDab(CH2SO3H)]T[ξDab(CH2SO3H)][Dab][ξDab(CH2SO3H)]LL[ξDab(CH2SO3H)][ξDab(CH2SO3H)]T; lactam 4-C; configuration not given here) | 1.0
COc1ccc(NS(=O)(=O)c2ccc3c(c2)[C@H]2C=CC[C@H]2[C@@H](c2ccc(C(=O)O)cc2)N3)cc1 | 1.0
O=C1c2ccc(O)c(O)c2C(=O)c2c(O)ccc(O)c21 | 0.0
N#Cc1ccccc1OCC1CN(Cc2cccc(C(F)(F)F)c2)C(=O)c2c(ccnc2-c2ccc(OCC(=O)O)cc2)O1 (configuration not stated) | 1.0
O=C(Nc1ccc(C(=O)Nc2ccc(C(=O)Nc3ccc(S(=O)(=O)O)c4cc(S(=O)(=O)O)cc(S(=O)(=O)O)c34)cc2)cc1)Nc1ccc(C(=O)Nc2ccc(C(=O)Nc3ccc(S(=O)(=O)O)c4cc(S(=O)(=O)O)cc(S(=O)(=O)O)c34)cc2)cc1 | 1.0
CCN(Cc1cccc(S(=O)(=O)O)c1)c1ccc(C(=C2C=CC(=[N+](CC)Cc3cccc(S(=O)(=O)O)c3)C=C2)c2ccccc2S(=O)(=O)[O-])cc1 | 1.0
Nc1c(S(=O)(=O)O)cc(Nc2ccc(Nc3nc(Cl)nc(Nc4ccc(S(=O)(=O)O)cc4)n3)c(S(=O)(=O)O)c2)c2c1C(=O)c1ccccc1C2=O | 0.0
COc1cccc(C(=O)Nc2ccc(C(=O)OCc3cc(=O)n4nc(C5CC5)sc4n3)cc2)c1 | 0.0
O=C(O)COc1ccc(-c2nccc3c2C(=O)N(Cc2cccc(C(F)(F)F)c2)CC(COc2cccc(F)c2)O3)cc1 (configuration not stated) | 1.0
CC(C)CN1CC(COc2ccc3ccccc3c2)Oc2ccnc(-c3ccc(OCC(=O)O)cc3)c2C1=O (configuration not stated) | 1.0
O=c1c(O)c(Br)ccc2c(Br)c(O)c(O)c(O)c12 | 1.0

###

Test: qHTS for Inhibitors of Plasmodium falciparum (GB4) proliferation (AID 504315); also: nearly all actives have a fitted effect of over 50% in size
Details: P. falciparum GB4 in erythrocytes, SYBR Green DNA, 72 h; series mostly up to 6.7 µM
Records with an inconclusive call do not appear. Active and inactive are the calls of the source. Calls follow the shape of the dose curve; as a rule, active = well fitted inhibition curve with a large enough effect; inconclusive = small, poorly fitted or top-dose-only effect, or effect the other way; inactive = flat fitted curve, though single readings scatter.
Outcome codes: Yes for active, No for inactive

Molecule | Class
CC(C)OC(=O)[C@@H]1CC[C@H](C)[C@@H](CCC[C@@H]2CC=C[C@H](CC#N)O2)O1 | No
CCN1C(=NCCc2cccnc2)NC(CCc2ccccc2)C(C(=O)OC)=C1C (stereo not drawn) | No
CC1(OC(=O)C2CCCC2)C(=O)C=C2C=C(c3ccsc3)N(CC3CC3)C=C2C1=O (stereo not drawn) | No
O=C1C2=C(C(=O)c3ccccc31)[C@H]1O[C@](CCCCN3C(=O)c4ccccc4C3=O)(Cc3ccccc31)O2 | Yes
CCN1C(=NCCOC)N[C@@H](c2ccccc2)[C@H](C(=O)OC)[C@H]1C | No
COCCN1C(=O)C2=C(C1=O)C1N(C)c3ccccc3[C@@]13C[C@@H](CO)N(S(=O)(=O)c1ccc(OC)cc1)C3=N2 (stereo partly drawn) | No
COC(=O)CC=C1c2ccccc2[C@@H](OC)[C@@H]1C | No
C[C@@H]1CC[C@H]2C(=O)N3[C@@H](CC[C@@H](C)[C@@H]3c3ccc(-c4ccco4)cc3)C(=O)N2[C@@H]1c1ccc(-c2ccco2)cc1 | No

// provenance: PubChem BioAssay (NCATS)
